Data origin: the supplement of paper PMC10627819

- Test system: S. aureus Newman;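 note: first quartile when negative (synergy) and third quartile when positive (antagonism)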
- assay overview: Bliss interaction score (quartile over a dose matrix) (fitness difference); higher = more antagonism (negative = synergy)
Quick reference for Bliss interaction score among some compounds
Answer with a number only.

Here are 4 compounds together with their reported answers.
# compound, Bliss interaction score
measured = [
    ("C[C@@H](O)[C@H]1C(=O)N2C(C(=O)O)=C(SCCNC=N)C[C@H]12 [Imipenem] + CN(C)c1cc(NC(=O)CNC(C)(C)C)c(O)c2c1C[C@H]1C[C@H]3[C@H](N(C)C)C(O)=C(C(N)=O)C(=O)[C@@]3(O)C(O)=C1C2=O [Tigecycline]", -0.0535),
    ("O=C(O[C@@H]1Cc2c(O)cc(O)cc2O[C@@H]1c1cc(O)c(O)c(O)c1)c1cc(O)c(O)c(O)c1 [EGCG] + CN1C2=CC=CC=C2N=C3C1=CC=CC3=O [Pyocyanin]", -0.0806),
    ("CCC[C@@H]1C[C@@H](C(=O)N[C@@H]([C@H]2O[C@H](SC)[C@H](O)[C@@H](O)[C@H]2O)[C@H](C)Cl)N(C)C1 [Clindamycin] + COc1cccc2c1C(=O)c1c(O)c3c(c(O)c1C2=O)C[C@@](O)(C(=O)CO)C[C@@H]3O[C@H]1C[C@H](N)[C@H](O)[C@H](C)O1 [Doxorubicin]", 0.168),
    ("O=C(N[C@H](CO)[C@H](O)c1ccc([N+](=O)[O-])cc1)C(Cl)Cl [Chloramphenicol] + Cc1cc(NS(=O)(=O)c2ccc(N)cc2)no1 [Sulfamethoxazol]", 0.0702),
]

Now look at this one.
Fill in the blank: the reported Bliss interaction score of CCC[C@@H]1C[C@@H](C(=O)N[C@@H]([C@H]2O[C@H](SC)[C@H](O)[C@@H](O)[C@H]2O)[C@@H](C)O)N(C)C1 [Lincomycin] + Cc1ncc([N+](=O)[O-])n1CCO [Metronidazole] is ____.
0.073
